Ref: the supplement of paper PMC7877785

assay: self-splicing fitness, log relative to wild type (ln ratio); higher = more splicing; Tetrahymena group I intron in knt gene, E. coli kanamycin selection, DiMSum; sequences stand for … in CUCUCU…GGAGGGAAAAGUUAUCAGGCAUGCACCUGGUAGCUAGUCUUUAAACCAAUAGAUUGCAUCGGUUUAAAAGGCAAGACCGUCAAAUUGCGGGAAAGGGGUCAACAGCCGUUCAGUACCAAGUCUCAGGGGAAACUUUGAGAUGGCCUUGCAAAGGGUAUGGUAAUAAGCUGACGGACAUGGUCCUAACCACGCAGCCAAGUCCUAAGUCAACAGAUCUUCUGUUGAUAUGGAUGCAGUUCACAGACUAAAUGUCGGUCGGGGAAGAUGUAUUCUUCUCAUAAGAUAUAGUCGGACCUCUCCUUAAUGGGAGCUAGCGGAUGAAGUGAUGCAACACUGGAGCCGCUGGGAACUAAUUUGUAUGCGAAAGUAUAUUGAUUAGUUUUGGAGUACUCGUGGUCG; conditions: 37 °C;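 note: selection with 25 µg/mL kanamycin versus none on LB agar overnight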

| sequence.entry | self-splicing fitness (ln) |
| --- | --- |
| ACAAAGCAAUAUUACGAUCU | -0.0747 |
| GCCCAGCAAUAUUACGACGA | -0.475 |
| GGUGAGCAAUAUUACGAGUG | -2.55 |
| GAAAAGCAAUAUUACGUAUG | -1.74 |
| UAAUAGCAAUAUUACGUUUU | -2.73 |
| GAUCAGCAAUAUUACGGAAG | -0.761 |
| AAGAAGCAAUAUUACGAUGC | -1.76 |
| CGAAAGCAAUAUUACGUGGG | -2.46 |
| UUCAAGCAAUAUUACGGACC | -2.97 |
| AUCUAGCAAUAUUACGACAA | 0.296 |
| UAAUAGCAAUAUUACGUCAC | 0.0385 |
| ACAUAGCAAUAUUACGAAAC | -2.45 |
| UCGUAGCAAUAUUACGUUCG | -0.735 |
| CUUAAGCAAUAUUACGUUUG | -2.73 |
| UCCUAGCAAUAUUACGGUCA | -0.106 |
| GUUCAGCAAUAUUACGAAGG | -0.421 |
